Type: in vivo, human
Details: human, blood, intravenous, 100 µg
Property measured: Vd (L/kg)
Just the number in L/kg, nothing appended.

Query: Returns the measured Vd for the input molecule. Input: C=CC(=O)N(C)CCOc1c(N)ncnc1-c1cc(F)cc(NC(=O)c2ccc(C3CC3)cc2F)c1C [remibrutinib]
Reply: 0.81

---

Assay type: in vivo, human
Conditions: human, whole blood, oral, t 1/2, arithmetic mean, with grapefruit juice
Property measured: half-life (h)
Just the number in h, nothing appended.

Query: Returns the measured half-life for the input compound. Input: `C=CC(=O)N(C)CCOc1c(N)ncnc1-c1cc(F)cc(NC(=O)c2ccc(C3CC3)cc2F)c1C`
Reply: 7.13

---

Format: in vivo, human
Settings: human, whole blood, oral, t 1/2, arithmetic mean, with RTV
Property measured: half-life (h)
Just the number in h, nothing appended.

Query: Returns the measured half-life for the input compound. Input: `C=CC(=O)N(C)CCOc1c(N)ncnc1-c1cc(F)cc(NC(=O)c2ccc(C3CC3)cc2F)c1C`
Reply: 12.1
